Provenance of the data: ChEMBL document CHEMBL1137411

System: MCF7
Assay: Repression of cyclinD1 level in MCF7 cells at 2.5 uM relative to control
Format: functional, Homo sapiens
Listed next: entries and their corresponding Activity.
measured.metric: Activity

{"columns": ["compound", "observed.measurement"],
 "data": [
  ["Cc1c(C)c2c(c(C)c1OC/C=C/c1ccccc1)CCC(C)(COc1ccc(/C=C3\\SC(=O)NC3=O)cc1)O2 (stereo not drawn)", "92%"],
  ["Cc1c(C)c2c(c(C)c1OC(=O)CCC(=O)O)CCC(C)(COc1ccc(/C=C3\\SC(=O)NC3=O)cc1)O2 (stereo not drawn)", "115%"],
  ["CC(C)=CCOc1c(C)c(C)c2c(c1C)CCC(C)(COc1ccc(/C=C3\\SC(=O)NC3=O)cc1)O2 (stereo not drawn)", "76%"],
  ["CC(C)=CCOc1c(C)c(C)c2c(c1C)CCC(C)(COc1ccc(/C=C3\\SC(=O)NC3=O)cc1C)O2 (stereo not drawn)", "89%"],
  ["COc1cc(/C=C2\\SC(=O)NC2=O)ccc1OCC1(C)CCc2c(C)c(OCC=C(C)C)c(C)c(C)c2O1 (stereo not drawn)", "95%"],
  ["Cc1c(C)c2c(c(C)c1OCc1ccccc1)CCC(C)(COc1ccc(/C=C3\\SC(=O)NC3=O)cc1)O2 (stereo not drawn)", "85%"],
  ["C=CCOc1c(C)c(C)c2c(c1C)CCC(C)(COc1ccc(/C=C3\\SC(=O)NC3=O)cc1Br)O2 (stereo not drawn)", "102%"],
  ["CC(C)=CCOc1c(C)c(C)c2c(c1C)CCC(C)(COc1ccc(/C=C3\\SC(=O)NC3=O)cc1Br)O2 (stereo not drawn)", "96%"]
]}

---

Tested on: MCF7
Assay: Repression of cyclinD1 level in MCF7 cells at 2.5 uM relative to control
Assay type: functional, Homo sapiens
Each entry below carries its reported Activity.

{"columns": ["compound", "target.desc", "Activity"],
 "data": [
  ["C=CCOc1c(C)c(C)c2c(c1C)CCC(C)(COc1ccc(/C=C3\\SC(=O)NC3=O)cc1)O2 (centres undefined)", "MCF7", "45%"],
  ["C=CCOc1c(C)c(C)c2c(c1C)CCC(C)(COc1ccc(/C=C3\\SC(=O)NC3=O)cc1OC)O2 (centres undefined)", "MCF7", "34%"],
  ["C=CCOc1c(C)c(C)c2c(c1C)CCC(C)(COc1ccc(/C=C3\\SC(=O)NC3=O)cc1C)O2 (centres undefined)", "MCF7", "84%"],
  ["C=CCOc1c(C)c(C)c2c(c1C)CCC(C)(COc1ccc(/C=C3\\SC(=O)NC3=O)cc1OCC)O2 (centres undefined)", "MCF7", "107%"]
]}
